# METHOD DESCRIPTION: In vivo mouse pharmacokinetics, paired oral co-dosing, plasma and brain
# Parameters: species or system mice
# EXPERIMENTAL PARAMETERS: brain, 10 mg/kg po co-dosed, 2 hr, read-out: Brain concentration
Label met when concentration at 2 hr is strictly below 5000 ng/g; otherwise label not met.

CHEMICAL SMILES	CAT
COC[C@@]1(O)CC[C@@]2(C)[C@@H](CC[C@@H]3[C@@H]2CC[C@]2(C)[C@@H](C(=O)Cn4ccnc4)CC[C@@H]32)C1	met

Take the compound [2H]c1nc([2H])n(CC(=O)[C@H]2CC[C@H]3[C@@H]4CC[C@H]5C[C@@](O)(COC([2H])([2H])[2H])CC[C@]5(C)[C@H]4CC[C@]23C)c1[2H] and say whether its concentration at 2 hr is less than 5000 ng/g.
not met

Just wondering, is concentration at 2 hr of [2H]c1nc([2H])n(CC(=O)[C@H]2CC[C@H]3[C@@H]4CC[C@H]5C[C@@](O)(COC)CC[C@]5(C)[C@H]4CC[C@]23C)c1[2H] below 5000 ng/g?
not met

Lab note: confirm whether the reported concentration at 2 hr for this compound is below 5000 ng/g, equality not counting. compound: [2H]C([2H])([2H])OC[C@@]1(O)CC[C@@]2(C)[C@@H](CC[C@@H]3[C@@H]2CC[C@]2(C)[C@@H](C(=O)Cn4ccnc4)CC[C@@H]32)C1
met

====

# METHOD DESCRIPTION: In vivo mouse pharmacokinetics, paired oral co-dosing, plasma and brain
# Parameters: species or system mice
# EXPERIMENTAL PARAMETERS: brain, 10 mg/kg po co-dosed, 4 hr, read-out: Brain concentration
Would you mind telling me the reported concentration at 4 hr of each entry?
Numbers only, in ng/g.

Here are 5 compounds together with their reported answers.
COMPOUND	MEASURE UNIT	concentration at 4 hr
[2H]c1nc([2H])n(C([2H])C(=O)[C@@]2([2H])CC[C@H]3[C@@H]4CC[C@H]5C[C@@](O)(COC([2H])([2H])[2H])CC[C@]5(C)[C@H]4CC[C@@]32C)c1[2H] (stereo partly drawn)	ng/g	3060
[2H]C([2H])([2H])OC[C@@]1(O)CC[C@@]2(C)[C@@H](CC[C@@H]3[C@@H]2CC[C@]2(C)[C@@H](C(=O)Cn4ccnc4)CC[C@@H]32)C1	ng/g	2200
[2H]c1nc([2H])n(CC(=O)[C@H]2CC[C@H]3[C@@H]4CC[C@H]5C[C@@](O)(COC)CC[C@]5(C)[C@H]4CC[C@]23C)c1[2H]	ng/g	4890
[2H]c1nc([2H])n(CC(=O)[C@H]2CC[C@H]3[C@@H]4CC[C@H]5C[C@@](O)(COC([2H])([2H])[2H])CC[C@]5(C)[C@H]4CC[C@]23C)c1[2H]	ng/g	4200
COC[C@@]1(O)CC[C@@]2(C)[C@@H](CC[C@@H]3[C@@H]2CC[C@]2(C)[C@@H](C(=O)Cn4ccnc4)CC[C@@H]32)C1	ng/g	2360

Now consider a different compound.
Tell us which concentration at 4 hr value is on record for [2H]C(C(=O)[C@@]1([2H])CC[C@H]2[C@@H]3CC[C@H]4C[C@@](O)(COC([2H])([2H])[2H])CC[C@]4(C)[C@H]3CC[C@@]21C)n1ccnc1 (stereo partly drawn)
3180

====

# METHOD DESCRIPTION: In vivo mouse pharmacokinetics, paired oral co-dosing, plasma and brain
# Set-up: species or system mice
# EXPERIMENTAL PARAMETERS: brain, 10 mg/kg po co-dosed, 6 hr, read-out: Brain concentration
For each record, write down the corresponding concentration at 6 hr.
One number for each entry, in ng/g.

Guide cases for concentration at 6 hr, answers given:
COMPOUND	concentration at 6 hr [ng/g]
[2H]c1nc([2H])n(CC(=O)[C@H]2CC[C@H]3[C@@H]4CC[C@H]5C[C@@](O)(COC)CC[C@]5(C)[C@H]4CC[C@]23C)c1[2H]	1410
[2H]C(C(=O)[C@@]1([2H])CC[C@H]2[C@@H]3CC[C@H]4C[C@@](O)(COC([2H])([2H])[2H])CC[C@]4(C)[C@H]3CC[C@@]21C)n1ccnc1 (stereo partly drawn)	2240

Next:
Look up and report measured concentration at 6 hr for this entry: [2H]C([2H])([2H])OC[C@@]1(O)CC[C@@]2(C)[C@@H](CC[C@@H]3[C@@H]2CC[C@]2(C)[C@@H](C(=O)Cn4ccnc4)CC[C@@H]32)C1
1980

====

# METHOD DESCRIPTION: In vivo mouse pharmacokinetics, paired oral co-dosing, plasma and brain
# Parameters: species or system mice
# EXPERIMENTAL PARAMETERS: brain, 10 mg/kg po co-dosed, 6 hr, read-out: Brain concentration
# Protocol: In a first study, the compounds of Examples 2 to 6 are compared to the Compound of Formula A (Example 1) using standard procedures in mice. In each test, two compounds are co-dosed in a single animal and the relative pharmacokinetics in plasma and brain is determined. […] After single dose oral administration of the test compounds together, plasma and brain levels are measured at 0.25, 0.5, 1, 2, 4, and 6 hours post-dosing. […]
Kindly state concentration at 6 hr for each of the entries shown.
Answers are plain numbers, in ng/g.

Solved entries:
COMPOUND	concentration at 6 hr [ng/g]
[2H]c1nc([2H])n(CC(=O)[C@H]2CC[C@H]3[C@@H]4CC[C@H]5C[C@@](O)(COC([2H])([2H])[2H])CC[C@]5(C)[C@H]4CC[C@]23C)c1[2H]	1180
COC[C@@]1(O)CC[C@@]2(C)[C@@H](CC[C@@H]3[C@@H]2CC[C@]2(C)[C@@H](C(=O)Cn4ccnc4)CC[C@@H]32)C1	2090

Let us move to another entry and its concentration at 6 hr.
Retrieve concentration at 6 hr measured for [2H]c1nc([2H])n(C([2H])C(=O)[C@@]2([2H])CC[C@H]3[C@@H]4CC[C@H]5C[C@@](O)(COC([2H])([2H])[2H])CC[C@]5(C)[C@H]4CC[C@@]32C)c1[2H] (stereo partly drawn) and print it.
2110

====

# METHOD DESCRIPTION: In vivo mouse pharmacokinetics, paired oral co-dosing, plasma and brain
# Design: species or system mice
# EXPERIMENTAL PARAMETERS: brain, 10 mg/kg po co-dosed
ENDPOINT NAME: Tmax (h)
One number for each entry, in h.

Worked cases, Tmax given:
COMPOUND	Tmax (h)
[2H]c1nc([2H])n(CC(=O)[C@H]2CC[C@H]3[C@@H]4CC[C@H]5C[C@@](O)(COC([2H])([2H])[2H])CC[C@]5(C)[C@H]4CC[C@]23C)c1[2H] [Example 4]	1
[2H]C([2H])([2H])OC[C@@]1(O)CC[C@@]2(C)[C@@H](CC[C@@H]3[C@@H]2CC[C@]2(C)[C@@H](C(=O)Cn4ccnc4)CC[C@@H]32)C1 [Example 3]	1

Give a short answer stating reported Tmax for [2H]c1nc([2H])n(CC(=O)[C@H]2CC[C@H]3[C@@H]4CC[C@H]5C[C@@](O)(COC)CC[C@]5(C)[C@H]4CC[C@]23C)c1[2H] [Example 2] .
1

====

# METHOD DESCRIPTION: In vivo mouse pharmacokinetics, paired oral co-dosing, plasma and brain
# Set-up: species or system mice
# EXPERIMENTAL PARAMETERS: plasma, 10 mg/kg po co-dosed, 6 hr, read-out: Plasma concentration
ENDPOINT NAME: concentration at 6 hr (ng/mL)
Answers are plain numbers, in ng/mL.

COMPOUND	MEASURED NUMBER
[2H]C([2H])([2H])OC[C@@]1(O)CC[C@@]2(C)[C@@H](CC[C@@H]3[C@@H]2CC[C@]2(C)[C@@H](C(=O)Cn4ccnc4)CC[C@@H]32)C1	1720
[2H]c1nc([2H])n(C([2H])C(=O)[C@@]2([2H])CC[C@H]3[C@@H]4CC[C@H]5C[C@@](O)(COC([2H])([2H])[2H])CC[C@]5(C)[C@H]4CC[C@@]32C)c1[2H] (stereo partly drawn)	642

Could you now look at the following compound, please?
Please look at this compound and report its concentration at 6 hr: [2H]c1nc([2H])n(CC(=O)[C@H]2CC[C@H]3[C@@H]4CC[C@H]5C[C@@](O)(COC)CC[C@]5(C)[C@H]4CC[C@]23C)c1[2H]
774

====

# METHOD DESCRIPTION: In vivo mouse pharmacokinetics, paired oral co-dosing, plasma and brain
# Set-up: species or system mice
# EXPERIMENTAL PARAMETERS: brain, 10 mg/kg po co-dosed, 0.25 hr, read-out: Brain concentration
Please respond with reported concentration at 0.25 hr for every item in the list.
Answers are plain numbers, in ng/g.

These recorded examples may help you get a feel for the data.
MOLECULE	ENDPOINT NAME	MEASURED NUMBER
[2H]c1nc([2H])n(CC(=O)[C@H]2CC[C@H]3[C@@H]4CC[C@H]5C[C@@](O)(COC)CC[C@]5(C)[C@H]4CC[C@]23C)c1[2H] [Example 2]	concentration at 0.25 hr	1840
[2H]C([2H])([2H])OC[C@@]1(O)CC[C@@]2(C)[C@@H](CC[C@@H]3[C@@H]2CC[C@]2(C)[C@@H](C(=O)Cn4ccnc4)CC[C@@H]32)C1 [Example 3]	concentration at 0.25 hr	2200

# evaluate next
Give recorded concentration at 0.25 hr. [2H]c1nc([2H])n(CC(=O)[C@H]2CC[C@H]3[C@@H]4CC[C@H]5C[C@@](O)(COC([2H])([2H])[2H])CC[C@]5(C)[C@H]4CC[C@]23C)c1[2H] [Example 4]
1710
